# protocol text: Saturation solubility of enavogliflozin in aqueous excipient solutions (HPLC)
# Format: physicochemical
# experimental parameters: aqueous excipient solution (excipient in purified water), aqueous with cosolvent or surfactant or cyclodextrin, thermodynamic from solid, Tween™ 20 0.05 %w/v in purified water; read-out: Saturation solubility
assay metric: solubility at 12 h (µg/mL)
Enter your answer as a number in µg/mL; do not include the unit.

Query: Name the reported solubility at 12 h value associated with the molecule OC[C@H]1O[C@@H](c2cc(Cc3ccc(C4CC4)cc3)c(Cl)c3c2CCO3)[C@H](O)[C@@H](O)[C@@H]1O
Reply: 360

---

# protocol text: Saturation solubility of enavogliflozin in aqueous excipient solutions (HPLC)
# Assay type: physicochemical
# experimental parameters: aqueous excipient solution (excipient in purified water), aqueous with cosolvent or surfactant or cyclodextrin, thermodynamic from solid, Polyoxyl 40 stearate 7.0 w/v% in purified water; read-out: Saturation solubility of enavogliflozin
# Experimental: According to Table 1 below, enavogliflozin in the amount corresponding to each standard solution and 70 mL of methanol were placed in a volumetric flask and then completely dissolved under ultrasonic agitation. Methanol was added thereto to adjust the total volume to 100 mL. The resulting solution was taken and filtered through a 0.45 µm RC (Regenerated Cellulose) membrane filter. The first 2 mL was discarded and then the filtrate was used as a standard solution. […]
assay metric: solubility at 12 h (mg/mL)
Enter your answer as a number in mg/mL; do not include the unit.

Query: Name the reported solubility at 12 h value associated with the compound OC[C@H]1O[C@@H](c2cc(Cc3ccc(C4CC4)cc3)c(Cl)c3c2CCO3)[C@H](O)[C@@H](O)[C@@H]1O
Reply: 32
